Biological target: Peroxisome proliferator-activated receptor alpha (Homo sapiens) (UniProt Q07869)
Sequence (Q07869 whole entry, looked up): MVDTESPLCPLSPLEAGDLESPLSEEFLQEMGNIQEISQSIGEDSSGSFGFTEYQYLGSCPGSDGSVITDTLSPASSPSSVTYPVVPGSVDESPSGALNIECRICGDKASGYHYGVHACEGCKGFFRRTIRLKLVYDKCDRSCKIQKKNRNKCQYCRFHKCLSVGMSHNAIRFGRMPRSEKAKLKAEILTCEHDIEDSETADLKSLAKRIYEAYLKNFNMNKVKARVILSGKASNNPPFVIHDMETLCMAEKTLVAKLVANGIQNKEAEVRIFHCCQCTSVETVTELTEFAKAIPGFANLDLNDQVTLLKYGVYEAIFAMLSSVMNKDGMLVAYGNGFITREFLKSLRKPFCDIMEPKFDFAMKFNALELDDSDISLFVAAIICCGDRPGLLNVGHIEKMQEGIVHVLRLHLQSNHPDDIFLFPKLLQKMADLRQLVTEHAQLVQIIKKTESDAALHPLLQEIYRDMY
Experiment: Binding affinity at human PPARalpha by fluorescence polarization
Reported pIC50 by item:
Notebook: values listed as pIC50 are -log10 of the concentration (mol/L).

{"columns": ["COMPOUND", "TARGET DESC", "pIC50"],
 "data": [
  ["Cc1oc(-c2ccccc2)nc1CCOc1cccc(CC2=CN(C(=O)OCc3ccccc3)CCC2C(=O)O)c1 (racemic)", "Peroxisome proliferator-activated receptor alpha (Homo sapiens) (UniProt Q07869)", 6.18]
]}

Give the reported value of pIC50 for this record: Cc1oc(-c2ccccc2)nc1CCOc1cccc(C2=C(CC(=O)O)CCN(C(=O)OCC(C)C)C2)c1
6.89

Give the reported value of pIC50 for this record: Cc1oc(-c2ccccc2)nc1CCOc1cccc(C2=C(CC(=O)O)CCN(C(=O)Oc3ccccc3)C2)c1
7.80

----------
Biological target: Peroxisome proliferator-activated receptor gamma (Homo sapiens)
Sequence (P37231 whole entry, the tested form may be a part): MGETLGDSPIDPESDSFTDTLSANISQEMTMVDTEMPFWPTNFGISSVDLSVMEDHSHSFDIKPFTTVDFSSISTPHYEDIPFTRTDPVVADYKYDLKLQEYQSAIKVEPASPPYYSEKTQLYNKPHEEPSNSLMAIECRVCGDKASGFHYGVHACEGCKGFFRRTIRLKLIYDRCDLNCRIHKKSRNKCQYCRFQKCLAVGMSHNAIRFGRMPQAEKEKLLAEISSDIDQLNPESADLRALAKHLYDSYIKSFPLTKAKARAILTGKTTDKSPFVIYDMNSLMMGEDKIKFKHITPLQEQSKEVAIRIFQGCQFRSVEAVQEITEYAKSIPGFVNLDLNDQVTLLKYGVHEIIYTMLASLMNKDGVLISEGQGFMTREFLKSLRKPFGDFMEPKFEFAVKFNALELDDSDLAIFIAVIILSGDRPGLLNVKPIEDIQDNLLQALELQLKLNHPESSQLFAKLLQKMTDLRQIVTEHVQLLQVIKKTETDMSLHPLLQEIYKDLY
Test: Agonist activity at human PPARgamma expressed in HEK293 cells assessed as luciferase activity by GAL4 transactivation assay
TEST READOUT: EC50

{"columns": ["COMPOUND", "EC50"],
 "data": [
  ["Cc1oc(-c2ccccc2)nc1CCOc1cccc(C2=C(C(=O)O)CCN(Cc3ccccc3)C2)c1", "> 7.5 µM"],
  ["Cc1oc(-c2ccccc2)nc1CCOc1cccc(CC2=C(C(=O)O)CCN(C(=O)OCc3ccccc3)C2)c1", "> 3.5 µM"]
]}

Consider now this further compound.
Give the reported value of EC50 for this record: Cc1oc(-c2ccccc2)nc1CCOc1cccc(C2CN(C(=O)OCC(C)C)CCC2C(=O)O)c1 (racemic)
> 7.5 µM

----------
Reported IC50 by item:
Molecular target: Peroxisome proliferator-activated receptor alpha (Homo sapiens) (UniProt Q07869)
Experiment: Binding affinity at human PPARalpha by fluorescence polarization

Give the reported value of IC50 for this record: Cc1oc(-c2ccccc2)nc1CCOc1ccc(C2=C(C(=O)O)CCN(C(=O)OCC(C)C)C2)cc1
> 27.3 µM

Give the reported value of IC50 for this record: Cc1oc(-c2ccccc2)nc1CCOc1cccc(C2=C(C(=O)O)CCN(Cc3ccccc3)C2)c1
> 27.5 µM

Give the reported value of IC50 for this record: Cc1oc(-c2ccccc2)nc1CCOc1cccc(CC2=C(C(=O)O)CCN(C(=O)OCc3ccccc3)C2)c1
> 15 µM
